target: T1, human CD3 E&D complex protein (Sino Biological Inc., CT026H0323H) (human, UniProt P07766 23-126; P04234 22-105); test: BLI, antibody on sensor
T1 construct: bought heterodimer; also called human CD3 protein (CT026H0323H)
T1 sequence (P07766 23-126, chain 1 of 2): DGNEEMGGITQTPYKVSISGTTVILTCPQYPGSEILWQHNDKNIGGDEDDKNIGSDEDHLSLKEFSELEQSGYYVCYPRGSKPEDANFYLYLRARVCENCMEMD
T1 sequence (P04234 22-105, chain 2 of 2): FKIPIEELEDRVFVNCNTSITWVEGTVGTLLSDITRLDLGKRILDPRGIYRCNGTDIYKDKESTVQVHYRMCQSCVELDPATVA
Consider the following binders and their measured koff readings.
Field: numeric (s⁻¹). Do not append units.

Fill blank: measured koff of the binder hzsp34.111 (antibody, human IgG1, lambda, L234A L235A, V domains shown, CDR mutant of hzsp34.24; IgG1 L234A L235A, lambda) VH: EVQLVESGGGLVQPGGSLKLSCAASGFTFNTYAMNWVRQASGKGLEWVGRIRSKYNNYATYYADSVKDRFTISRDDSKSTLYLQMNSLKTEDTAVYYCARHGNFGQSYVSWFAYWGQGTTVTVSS VL: QAVVTQEPSLTVSPGGTVTLTCRSSTGAVGGSNYANWVQQKPGQAPRGLIGGTNKRAPGVPARFSGSLLGDKAALTLLGAQPEDEAEYYCALWYSNLWVFGQGTKLTVLG is ____.
0.000454

What do you get for hzsp34.80 (antibody, human IgG1, lambda, L234A L235A, V domains shown, CDR mutant of hzsp34.24; IgG1 L234A L235A, lambda) VH: EVQLVESGGGLVQPGGSLKLSCAASGFTFNTAAMNWVRQASGKGLEWVGRIRSKYNNYATYYADSVKDRFTISRDDSKSTLYLQMNSLKTEDTAVYYCARHGNFGQSYVSWFAYWGQGTTVTVSS VL: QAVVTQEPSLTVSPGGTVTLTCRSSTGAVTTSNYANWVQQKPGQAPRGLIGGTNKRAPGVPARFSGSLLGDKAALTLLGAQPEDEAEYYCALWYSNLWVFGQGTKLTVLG ?
0.00147

What do you get for hzsp34.89 (antibody, human IgG1, lambda, L234A L235A, V domains shown, CDR mutant of hzsp34.24; IgG1 L234A L235A, lambda) VH: EVQLVESGGGLVQPGGSLKLSCAASGFTFNTYAMNWVRQASGKGLEWVGRIRSKYNNYATYYADSVKDRFTISRDDSKSTLYLQMNSLKTEDTAVYYCARHGNAGQSYVSWFAYWGQGTTVTVSS VL: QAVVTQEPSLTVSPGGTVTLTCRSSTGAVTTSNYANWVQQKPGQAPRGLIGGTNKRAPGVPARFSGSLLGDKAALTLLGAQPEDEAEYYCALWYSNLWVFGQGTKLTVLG ?
0.00094
